target: Peroxisome proliferator-activated receptor gamma (Homo sapiens) (UniProt P37231); assay: qHTS assay to identify small molecule agonists of the peroxisome proliferator-activated receptor gamma (PPARg) signaling pathway (AID 743094); conditions: HEK293H PPARg-UAS-bla, beta-lactamase FRET ratio, 17 h; series mostly up to 57 µM
Sequence (P37231 whole entry, looked up): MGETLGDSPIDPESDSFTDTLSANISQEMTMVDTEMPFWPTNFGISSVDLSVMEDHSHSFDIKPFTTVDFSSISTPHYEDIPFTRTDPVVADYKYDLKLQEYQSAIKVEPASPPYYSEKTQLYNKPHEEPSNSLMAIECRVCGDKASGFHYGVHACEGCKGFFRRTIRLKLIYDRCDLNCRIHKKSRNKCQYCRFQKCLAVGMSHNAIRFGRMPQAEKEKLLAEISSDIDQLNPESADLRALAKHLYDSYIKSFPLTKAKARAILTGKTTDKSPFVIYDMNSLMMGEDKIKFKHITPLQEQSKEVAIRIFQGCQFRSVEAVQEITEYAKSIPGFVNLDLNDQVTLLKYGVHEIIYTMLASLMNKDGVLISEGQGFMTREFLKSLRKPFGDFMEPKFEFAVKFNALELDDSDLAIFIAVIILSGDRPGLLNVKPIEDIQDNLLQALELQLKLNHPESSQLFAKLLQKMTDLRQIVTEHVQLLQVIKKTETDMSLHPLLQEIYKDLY
Inconclusive results are not listed. Activity calls are given as the source filed them. The call rests on the fitted dose curve; in most records, active means well fitted activation curve with a large enough effect in the signal ratio in the repeat runs (not every such curve was filed as active); inconclusive means weak or mixed curves, or effect the other way; inactive means no such curve, though single readings can be large or run the other way; the % refers to the signal ratio.
// one of Yes for active, No for inactive, no free text

Ask | Please let me know the test result on file for `[H+].[H+].[Hg+2].[O-]B([O-])[O-].[c-]1ccccc1` .
Reply | Yes

Ask | Please let me know the test result on file for `Cc1ccccc1-n1c(CF)nc2ccc(N)cc2c1=O` .
Reply | No

Ask | Please let me know the test result on file for O=C1CCCCC1CN1CCCCC1 (configuration not stated) .
Reply | No

Ask | Please let me know the test result on file for `CC[N+](C)(CC)CCOC(=O)C(O)(c1ccccc1)c1ccccc1` .
Reply | No

Ask | Please let me know the test result on file for `OC[C@@H](O)[C@H]1O[C@@H]2O[C@@H](C(Cl)(Cl)Cl)O[C@@H]2[C@H]1O` .
Reply | No

====

test: qHTS assay to identify small molecule antagonists of the constitutive androstane receptor (CAR) signaling pathway - cell viability counter screen (AID 1224837); settings: HepG2-CYP2B6-hCAR viability, CellTiter-Fluor, 23 h, co-treated with 50 nM CITCO; series mostly up to 92.4 µM; further: nearly all actives have a fitted effect of over 45% in size
Inconclusive results are not listed. The source made the active and inactive calls. Calls come from the whole dose curve; as a rule, active = well fitted cell-killing curve with a large enough effect in the repeat runs; inconclusive = weak or mixed curves, or effect the other way; inactive = flat fitted curve, though single readings scatter.
// one of active, inactive, no free text

Sample answers from the record:
compound	classLabel
CC(c1ccccc1)(c1ccc(O)cc1)c1ccc(O)cc1	inactive
O=C(Nc1ccccc1-c1ccc(Cl)cc1)c1cccnc1Cl	inactive
O=C(c1ccccc1)C(Cl)Cl	active
OC(Cc1ccccc1Cl)(Cn1[nH]cnc1=S)C1(Cl)CC1 (stereo unspecified)	inactive
O=C1C(I)=CC(=C(c2cc(I)c(O)c(I)c2)c2ccccc2C(=O)O)C=C1I	inactive

With those in mind, consider the next compound.
Ask | Please let me know the test result on file for `CNC(=O)Oc1cc(C)c(SC)c(C)c1` .
Reply | inactive

====

Assay: qHTS assay for identifying genotoxic compounds that show differential cytotoxicity against isogenic chicken DT40 cell lines with known DNA damage response pathways - Rev3 mutant cell line (AID 743014); further: nearly all actives have a fitted effect of over 55% in size
Conditions: chicken DT40 Rev3-/- viability, CellTiter-Glo, 40 h; series mostly up to 68.4 µM
Excerpt: National Center for Advancing Translational Sciences [NCATS] NIH Chemical Genomics Center [NCGC] U.S. Environmental Protection Agency [EPA] National Institutes of Environmental Health Sciences [NIEHS] National Toxicology Program [NTP] U.S. Food and Drug Administration [FDA] DNA repair pathways play a critical role in cellular homeostasis by repairing DNA damage induced by endogenous processes and xenobiotics. […]
Inconclusive results are not listed. The source made the active and inactive calls. Calls come from the whole dose curve; as a rule, active = well fitted cell-killing curve with a large enough effect in the repeat runs; inconclusive = weak or mixed curves, or effect the other way; inactive = no such curve, though single readings can be large or run the other way.
// one of active, inactive, no free text

Sample answers from the record:
compound	classLabel
C=CCC1(C(C)CCC)C(=O)N=C(S)NC1=O (configuration not stated)	inactive
Cc1nnc2n1-c1ccc(Cl)cc1C(c1ccccc1Cl)=NC2	inactive
C[C@]12N[C@H](Cc3ccccc31)c1ccccc12	inactive
COc1ccc(OC)c(C[C@H](C)N)c1	inactive
OC[C@@H](O)[C@H]1O[C@@H]2O[C@@H](C(Cl)(Cl)Cl)O[C@@H]2[C@H]1O	inactive

Ask | Please let me know the test result on file for `COC(=O)[C@@H]1[C@H]2CC[C@@H](C[C@H]1OC(=O)c1ccccc1)N2C` .
Reply | inactive

Ask | Please let me know the test result on file for `C=CCN(C1=NCCN1)c1c(Cl)cccc1Cl` .
Reply | inactive
